Test system: TFEB
Measurement Protocol: TFEB nuclear translocation assay
Format: cell-based
Conditions: Homo sapiens; HeLa wt or HeLa TRPML1 KO cells, treated for 2 hrs; ratio of nuclear to ring-region TFEB intensity
Reported EC50 is given for each of the following compounds.

Worked cases, answers included:
Cc1cc2n(n1)C1(CCCCC1)CN2S(=O)(=O)c1ccc(S(=N)(=O)N(C)C)cc1 (stereo not shown); ≥ 10 µM
Cc1cccc(-n2cc(S(=O)(=O)N3CC4(CCCC4)c4ccccc43)cn2)c1; 8.01 to 9.99 µM
COC(CS(=O)(=O)N1CC2(CCCC2)c2ccccc21)c1ccc(F)cc1 (stereo not shown); ≥ 10 µM
CN(C)S(=O)(=O)c1ccc(S(=O)(=O)N2CC3(CCC(O)CC3)c3ccccc32)cc1 (stereo not shown); 2.01 to 8 µM
O=S(=O)(Cc1ccc(C(F)F)cc1)N1CC2(CCCC2)c2ccccc21; 2.01 to 8 µM
O=C(c1ccccc1)N1CCC2(CC1)CN(S(=O)(=O)c1ccc(C(F)F)cc1)c1ccccc12; 2.01 to 8 µM

Dear colleague, I am looking for the recorded EC50 of the following compound: `CN(C)S(=O)(=O)c1ccc(S(=O)(=O)N2CC3(CCCC3)c3ncccc32)cc1`
2.01 to 8 µM

Dear colleague, I am looking for the recorded EC50 of the following compound: `CN(C)S(=O)(=O)c1ccc(S(=O)(=O)N2CC3(CCCC3)Oc3ccccc32)cc1`
≤ 2 µM

Dear colleague, I am looking for the recorded EC50 of the following compound: `O=C(OCc1cccnc1)N1CCC2(CC1)CN(S(=O)(=O)c1ccc(C(F)F)cc1)c1ccccc12`
≤ 2 µM

Dear colleague, I am looking for the recorded EC50 of the following compound: `O=S(=O)(c1ccc(C(F)F)cc1)N1CC2(CCN(Cc3cccnc3)CC2)c2ccccc21`
2.01 to 8 µM

Dear colleague, I am looking for the recorded EC50 of the following compound: `Cc1cc2n(n1)C1(CCCCC1)CN2S(=O)(=O)c1ccc(C(F)F)cc1`
≥ 10 µM

====

Test system: TFEB
Measurement Protocol: TFEB nuclear translocation assay
Format: cell-based
Conditions: Homo sapiens; HeLa wt or HeLa TRPML1 KO cells, treated for 2 hrs; ratio of nuclear to ring-region TFEB intensity
pEC50: −log10 of the molar value.
Quantity Kind: pEC50

CN1CCC2(C1)CN(S(=O)(=O)Cc1ccccc1)c1ccccc12 (centres unmarked); ≤ 5.00

Dear colleague, I am looking for the recorded pEC50 of the following compound: `CC(C)C(=O)N1CC2(CCN(C(=O)OCc3ccccc3)CC2)c2ccccc21`
≤ 5.00

Dear colleague, I am looking for the recorded pEC50 of the following compound: N=S(=O)(c1ccc(S(=O)(=O)N2CC3(CCCCC3)c3ccccc32)cc1)C1CC1 (centres unmarked)
≤ 5.00

Dear colleague, I am looking for the recorded pEC50 of the following compound: `CN(Cc1ccccc1)C(=O)N1CCC2(CC1)CN(S(=O)(=O)c1ccc(C(F)F)cc1)c1ccccc12`
5.10 to 5.70

Dear colleague, I am looking for the recorded pEC50 of the following compound: CN(C)S(=O)(=O)c1ccc(S(=O)(=O)N2CC3(CCN(CC(F)(F)F)C3)c3ccccc32)cc1 (centres unmarked)
≥ 5.70

Dear colleague, I am looking for the recorded pEC50 of the following compound: `COC(C)(C)c1cccc(S(=O)(=O)N2CC3(CCCC3)c3ccccc32)c1`
5.00 to 5.10

Dear colleague, I am looking for the recorded pEC50 of the following compound: `CC1(C)Cc2cc(S(=O)(=O)N3CC4(CCN(C(=O)OCc5ccccc5)CC4)c4ccccc43)ccc2O1`
≥ 5.70

Dear colleague, I am looking for the recorded pEC50 of the following compound: `CC1(C)OCc2ccc(S(=O)(=O)N3CC4(CCCC4)c4ccccc43)cc21`
5.10 to 5.70

====

Reported EC50 is given for each of the following molecules.
Test system: THP-1 cells
Measurement Protocol: Lamp1 lysosomal exocytosis assay
Assay type: cell-based
Conditions: Homo sapiens, 55 min, 55 min incubation, top dose 20 μM

O=C(NCc1ccccc1)N1CCC2(CC1)CN(S(=O)(=O)c1ccc(C(F)F)cc1)c1ccccc12; ≥ 5.01 µM
O=C(CCC1CCOC1)N1CCC2(CC1)CN(S(=O)(=O)c1ccc(C(F)F)cc1)c1ccccc12 (stereo not drawn); ≥ 5.01 µM
O=C(OCc1ccccc1)N1CCC2(CC1)CN(C(=O)c1ccccc1)c1ccccc12; ≥ 5.01 µM
O=C(OCc1ccccc1)N1CCC2(CC1)CN(C(=O)C1(c3ccccc3)CC1)c1ccccc12; ≥ 5.01 µM
O=C(c1ccccc1)N1CCC2(CC1)CN(S(=O)(=O)c1ccc(C(F)F)cc1)c1ccccc12; 1.01 to 5 µM
Cn1cccc1NC(=O)N1CCC2(CC1)CN(S(=O)(=O)c1ccc(C(F)F)cc1)c1ccccc12; ≥ 5.01 µM

Dear colleague, I am looking for the recorded EC50 of the following molecule: O=C(C1CCC2(CC1)CN(S(=O)(=O)c1ccc(C(F)F)cc1)c1ccccc12)N1CCCC1 (stereo not drawn)
≥ 5.01 µM

Dear colleague, I am looking for the recorded EC50 of the following molecule: `O=C(Nc1cccc(C(F)F)c1)N1CCC2(CC1)CN(S(=O)(=O)c1ccc(C(F)F)cc1)c1ccccc12`
≥ 5.01 µM

Dear colleague, I am looking for the recorded EC50 of the following molecule: `O=S(=O)(c1ccc(C(F)F)cc1)N1CC2(CCN(Cc3ccncc3)CC2)c2ccccc21`
≥ 5.01 µM

Dear colleague, I am looking for the recorded EC50 of the following molecule: `O=C(OCc1cnoc1)N1CCC2(CC1)CN(S(=O)(=O)c1ccc(C(F)F)cc1)c1ccccc12`
1.01 to 5 µM

Dear colleague, I am looking for the recorded EC50 of the following molecule: `CN(C(=O)N1CC2(CCN(C(=O)OCc3ccccc3)CC2)c2ccccc21)c1ccc(C(F)F)cc1`
≥ 5.01 µM

Dear colleague, I am looking for the recorded EC50 of the following molecule: `CN(C)S(=O)(=O)c1ccc(S(=O)(=O)N2CC3(CCN(C(=O)OCC4CC4)CC3)n3nccc32)cc1`
≥ 5.01 µM

Dear colleague, I am looking for the recorded EC50 of the following molecule: CN(C)S(=O)(=O)c1ccc(S(=O)(=O)N2CC3(CCN(C(=O)C(C)(C)C)C3)c3ccccc32)cc1 (stereo not drawn)
≥ 5.01 µM

Dear colleague, I am looking for the recorded EC50 of the following molecule: `O=C(NCC1CC1)N1CCC2(CC1)CN(S(=O)(=O)c1ccc(C(F)F)cc1)c1ccccc12`
≥ 5.01 µM

====

Reported EC50 is given for each of the following compounds.
System: THP-1 cells
Measurement Protocol: Lamp1 lysosomal exocytosis assay
Assay type: cell-based
Conditions: Homo sapiens, 55 min, 55 min incubation, top dose 20 μM

Worked cases, answers included:
CN(C)S(=O)(=O)c1ccc(S(=O)(=O)N2CC3(CCN(C4CCOC4)CC3)c3ccccc32)cc1 (stereo not shown); ≥ 5.01 µM
CC(C)NC(=O)N1CCC2(CC1)CN(S(=O)(=O)c1ccc(C(F)F)cc1)c1ccccc12; ≥ 5.01 µM
CC1(C)COc2ccc(S(=O)(=O)N3CC4(CCCC4)c4c(F)cccc43)cc21; ≥ 5.01 µM
Cc1ccc2c(c1)N(S(=O)(=O)c1ccc(S(=O)(=O)N(C)C)cc1)CC21CCCC1; ≤ 0.5 µM
CN(C)S(=O)(=O)c1ccc(S(=O)(=O)N2CC3(CCN(CC4CCOCC4)CC3)c3ccccc32)cc1; 1.01 to 5 µM
O=S(=O)(c1ccc(C(F)F)cc1)N1CC2(CCN(Cc3ccccn3)CC2)c2ccccc21; ≥ 5.01 µM
Cn1cc(COC(=O)N2CCC3(CC2)CN(S(=O)(=O)c2ccc(C(F)F)cc2)c2ccccc23)cn1; 1.01 to 5 µM
O=C(NC1CCOc2ccccc21)N1CCC2(CC1)CN(S(=O)(=O)c1ccc(C(F)F)cc1)c1ccccc12 (stereo not shown); 0.51 to 1 µM

Lookup: EC50 / THP-1 cells / `O=C(Nc1cnsc1)N1CCC2(CC1)CN(S(=O)(=O)c1ccc(C(F)F)cc1)c1ccccc12`
≥ 5.01 µM

Lookup: EC50 / THP-1 cells / `CN(C)S(=O)(=O)c1ccc(S(=O)(=O)N2CCC3(CCN(CC(F)(F)F)CC3)c3ccccc32)cc1`
≥ 5.01 µM

Lookup: EC50 / THP-1 cells / `O=C(C1CC1)N1CCC2(CC1)CN(S(=O)(=O)c1ccc(C(F)F)cc1)c1ccccc12`
≥ 5.01 µM

Lookup: EC50 / THP-1 cells / `COc1ccc(NC(=O)N2CCC3(CC2)CN(S(=O)(=O)c2ccc(C(F)F)cc2)c2ccccc23)c(OC)c1`
≥ 5.01 µM

====

Test system: TFEB
Measurement Protocol: TFEB nuclear translocation assay
Assay type: cell-based
Conditions: Homo sapiens; HeLa wt or HeLa TRPML1 KO cells, treated for 2 hrs; ratio of nuclear to ring-region TFEB intensity
Quantity Kind: EC50

Worked cases, answers included:
O=C(C1CC1)N1CCC2(CC1)CN(S(=O)(=O)c1ccc(C(F)F)cc1)c1ccccc12; ≥ 10 µM
O=S(=O)(c1ccc2c(c1)CCC2)N1CC2(CCCC2)c2ccccc21; 2.01 to 8 µM
CN(C)S(=O)(=O)c1ccc(S(=O)(=O)N2CCC3(CCCCC3)c3ccccc32)cc1; ≤ 2 µM
O=C(NC1CCOc2ccccc21)N1CCC2(CC1)CN(S(=O)(=O)c1ccc(C(F)F)cc1)c1ccccc12 (centres unmarked); ≤ 2 µM
Cc1cc(S(=O)(=O)N2CC3(CCCC3)c3ccccc32)ccc1F; ≥ 10 µM
CN(C)S(=O)(=O)c1ccc(S(=O)(=O)N2CC3(CCN(C(=O)OCC4CC4)CC3)n3nccc32)cc1; ≥ 10 µM
CC(C)C(=O)c1ccc(S(=O)(=O)N2CC3(CCCC3)c3ccccc32)cc1; 2.01 to 8 µM

From here, focus on the item given below.
Dear colleague, I am looking for the recorded EC50 of the following compound: `O=C(Oc1ccccc1)N1CCC2(CC1)CN(S(=O)(=O)c1ccc(C(F)F)cc1)c1ccccc12`
≤ 2 µM
